Please go through the items and note down their IC50.
Molecular target: human TLR7 (Homo sapiens)
Construct: host or cells: HEK293 (HEK-Blue hTLR7)
Sequence (Q9NYK1 27-1049): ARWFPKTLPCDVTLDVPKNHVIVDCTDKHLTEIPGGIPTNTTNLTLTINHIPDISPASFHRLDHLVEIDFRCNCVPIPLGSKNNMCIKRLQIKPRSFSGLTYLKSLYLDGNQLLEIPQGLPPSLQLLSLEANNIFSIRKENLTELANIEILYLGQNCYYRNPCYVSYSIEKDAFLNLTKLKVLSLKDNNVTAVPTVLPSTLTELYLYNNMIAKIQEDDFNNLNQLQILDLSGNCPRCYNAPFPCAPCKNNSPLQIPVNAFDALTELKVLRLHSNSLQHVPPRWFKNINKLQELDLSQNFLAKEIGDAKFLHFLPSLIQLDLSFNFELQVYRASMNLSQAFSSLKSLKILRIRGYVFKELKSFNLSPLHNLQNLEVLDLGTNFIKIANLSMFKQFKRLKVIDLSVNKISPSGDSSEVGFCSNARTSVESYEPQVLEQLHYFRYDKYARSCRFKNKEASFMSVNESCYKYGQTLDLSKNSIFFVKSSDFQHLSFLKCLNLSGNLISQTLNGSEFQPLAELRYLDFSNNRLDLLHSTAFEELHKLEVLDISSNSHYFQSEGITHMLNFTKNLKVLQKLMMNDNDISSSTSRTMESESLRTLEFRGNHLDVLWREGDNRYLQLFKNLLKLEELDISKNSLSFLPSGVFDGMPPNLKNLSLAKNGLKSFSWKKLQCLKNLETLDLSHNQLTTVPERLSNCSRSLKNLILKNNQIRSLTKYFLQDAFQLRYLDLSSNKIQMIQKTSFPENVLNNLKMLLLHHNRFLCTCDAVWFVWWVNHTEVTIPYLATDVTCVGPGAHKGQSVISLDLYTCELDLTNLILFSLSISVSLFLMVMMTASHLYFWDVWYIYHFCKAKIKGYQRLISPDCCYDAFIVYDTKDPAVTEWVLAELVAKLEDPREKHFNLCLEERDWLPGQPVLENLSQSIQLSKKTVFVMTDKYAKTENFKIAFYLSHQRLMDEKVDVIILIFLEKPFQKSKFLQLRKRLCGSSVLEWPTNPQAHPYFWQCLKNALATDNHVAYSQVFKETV
Assay: HEK293-Blue-hTLR-7 cells assay
Assay type: cell-based
Conditions: HEK293-Blue-hTLR7 cells, R848 stimulation, 20 hrs, SEAP reporter; read-out: HEK/hTLR7 IC50
Report only the number, with the unit nM understood.

For the compound [2H]c1ccc2c(N3C[C@@H](C)N4Cc5nc(N6CCC7(CNC7)C6)ccc5[C@H]4C3)ccc(C#N)c2n1 , what IC50 is on record? 6.5

I'd like to know its IC50. The compound in question is [2H]c1ccc2c(N3C[C@@H](C)N4Cc5nc(N6CC[C@@H](OC)[C@H](N)C6)ccc5[C@H]4C3)ccc(C#N)c2n1 2.6

What value of measured IC50 is listed for [2H]c1ccc2c(N3C[C@@H](C)N4Cc5nc(N6CC[C@](C)(N)C6)ccc5[C@H]4C3)ccc(C#N)c2n1 ? 1.3

Entry C[C@@H]1CN(c2ccc(C#N)c3ncccc23)C[C@@H]2c3cnc(N4CCNCC4)cc3CN12 has what IC50? 3.1

GET /values?readout=IC50&item= [2H]c1ccc2c(N3C[C@@H](C)N4Cc5nc(C6CCNCC6)ccc5[C@H]4C3)ccc(C#N)c2n1 1.7

Given the entry [2H]c1ccc2c(N3C[C@@H](C)N4Cc5nc(OC6CCNCC6)ccc5[C@H]4C3)ccc(C#N)c2n1 , report its measured IC50. 1

Entry under review: [2H]c1ccc2c(N3C[C@@H](C)N4Cc5nc(N6CC[C@H](N)[C@H](OC)C6)ccc5[C@H]4C3)ccc(C#N)c2n1 . Reported IC50? 1.7

---

Exercise: for every item that follows, state its recorded CL (h).
Assay: Human microsomal stability assay
Assay type: in vitro ADME
Conditions: human liver microsomes, 1 μM test compound, 0.5 mg/mL protein, 37° C., pH 7.4
Method: Human Microsomal Stability Assay Human liver microsomes (Cat.NO.: 452117, Corning, USA) were preincubated with test compound for 10 minutes at 37° C. in 100 mM potassium phosphate buffer, pH 7.4. The reactions were initiated by adding NADPH regenerating system. […] The amount of compound remaining in the samples was determined by LC-MS/MS. Controls of no NADPH regenerating system at zero and 30 minutes were also prepared and analyzed. […]
Only the number, expressed in L/h/kg, is required.

Item [2H]c1ccc2c(N3C[C@@H](C)N4Cc5nc(N6CC[C@H](N)[C@H](OC)C6)ccc5[C@H]4C3)ccc(C#N)c2n1 [Example 13] has what recorded CL (h)? 0.564

// CL (h) lookup, key: N#Cc1ccc(N2CCN3Cc4nc(N5CCNCC5)ccc4[C@@H]3C2)c2cccnc12 [Example 3A] 0.504

Given the molecule [2H]c1ccc2c(N3C[C@@H](C)N4Cc5nc(C6CCNCC6)ccc5[C@H]4C3)ccc(C#N)c2n1 [Example 23] , what is its reported CL (h)? 0.372

Returns the measured CL (h) for the input molecule. Input: CC1(N)CCN(c2ccc3c(n2)CN2CCN(c4ccc(C#N)c5ncccc45)C[C@@H]32)CC1 [Example 4A] 0.534

# get_value(readout='CL (h)', item= N#Cc1ccc(N2CCN3Cc4cc(N5CCNCC5)ncc4C3C2)c2cccnc12 (stereo not drawn) [Example 1] ) 0.372

Please look up its CL (h): [2H]c1ccc2c(N3C[C@@H](C)N4Cc5nc(N6CCC7(CNC7)C6)ccc5[C@H]4C3)ccc(C#N)c2n1 [Example 9] 0.372

Could you tell me which CL (h) is on file for [2H]c1ccc2c(N3C[C@@H](C)N4Cc5nc(OC6CCNCC6)ccc5[C@H]4C3)ccc(C#N)c2n1 [Example 24] ? 0.372

Reported CL (h), molecule C[C@@H]1CN(c2ccc(C#N)c3ncccc23)C[C@@H]2c3ccc(N4CC5CNCC(C4)O5)nc3CN12 [Example 6] : ____ 0.372

Which value of CL (h) has been reported for CC1(N)CCN(c2ccc3c(n2)CN2CCN(c4ccc(C#N)c5ncccc45)C[C@H]32)CC1 [Example 4B] in the records? 0.486

Taken from patent US12503471B2.
